Origin of the recorded values: patent US20250145606A1

target: PDGFRα (Homo sapiens (Human), UniProt P16234); assay: Inhibition of PDGFRα kinase activity (HTRF KinEASE-TK); details: biochemical, HTRF KinEASE-TK
Sequence (P16234 24-1089): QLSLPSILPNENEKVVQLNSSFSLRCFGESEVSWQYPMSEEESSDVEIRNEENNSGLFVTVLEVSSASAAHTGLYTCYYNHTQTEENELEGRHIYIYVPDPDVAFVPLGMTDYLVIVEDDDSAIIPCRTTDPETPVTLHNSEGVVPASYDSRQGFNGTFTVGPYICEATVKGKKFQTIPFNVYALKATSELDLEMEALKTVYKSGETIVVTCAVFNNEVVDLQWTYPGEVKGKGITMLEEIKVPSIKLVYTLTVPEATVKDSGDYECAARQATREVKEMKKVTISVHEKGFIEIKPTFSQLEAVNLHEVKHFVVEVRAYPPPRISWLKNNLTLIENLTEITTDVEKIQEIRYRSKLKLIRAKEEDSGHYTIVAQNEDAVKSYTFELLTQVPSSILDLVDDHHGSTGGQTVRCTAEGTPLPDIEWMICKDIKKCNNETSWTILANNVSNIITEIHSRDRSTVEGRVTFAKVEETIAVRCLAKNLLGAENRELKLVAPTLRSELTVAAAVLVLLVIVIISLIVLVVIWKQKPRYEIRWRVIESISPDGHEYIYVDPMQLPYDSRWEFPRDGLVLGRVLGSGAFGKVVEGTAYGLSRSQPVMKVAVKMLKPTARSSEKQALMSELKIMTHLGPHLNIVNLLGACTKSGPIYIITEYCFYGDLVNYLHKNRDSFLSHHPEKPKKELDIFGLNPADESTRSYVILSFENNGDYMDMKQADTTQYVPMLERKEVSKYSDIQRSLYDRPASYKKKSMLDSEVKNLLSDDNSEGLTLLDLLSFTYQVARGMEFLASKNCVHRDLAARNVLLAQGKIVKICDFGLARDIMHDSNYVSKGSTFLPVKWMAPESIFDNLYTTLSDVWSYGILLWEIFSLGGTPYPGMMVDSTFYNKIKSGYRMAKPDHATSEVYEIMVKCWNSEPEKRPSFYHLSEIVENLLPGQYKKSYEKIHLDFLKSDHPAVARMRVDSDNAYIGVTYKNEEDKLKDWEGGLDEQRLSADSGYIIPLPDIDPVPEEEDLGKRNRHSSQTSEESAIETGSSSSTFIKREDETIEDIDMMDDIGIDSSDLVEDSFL
Below is a list of entries, each paired with its recorded IC50 value.

# IC50 lookup, item `Cc1ncc(C(=O)Nc2cc(C(=O)Nc3ccc(C(F)(F)F)cn3)c(F)cc2C)s1` > 1000 nM

Param item: `Cc1cc(F)c(C(=O)Nc2ccc(CN3CCN(C)CC3)cn2)cc1NC(=O)c1cnc(N)s1` > 1000 nM

Param item: `Cc1cc(F)c(C(=O)Nc2cc3n(n2)CCOC3)cc1NC(=O)c1cnc(N)s1` > 1000 nM

----------
Below is a list of entries, each paired with its recorded pIC50 value.
biological target: PDGFRβ (Homo sapiens (Human), UniProt P09619); assay: Inhibition of PDGFRβ kinase activity (HTRF KinEASE-TK); settings: biochemical, HTRF KinEASE-TK
Sequence (P09619 33-1106): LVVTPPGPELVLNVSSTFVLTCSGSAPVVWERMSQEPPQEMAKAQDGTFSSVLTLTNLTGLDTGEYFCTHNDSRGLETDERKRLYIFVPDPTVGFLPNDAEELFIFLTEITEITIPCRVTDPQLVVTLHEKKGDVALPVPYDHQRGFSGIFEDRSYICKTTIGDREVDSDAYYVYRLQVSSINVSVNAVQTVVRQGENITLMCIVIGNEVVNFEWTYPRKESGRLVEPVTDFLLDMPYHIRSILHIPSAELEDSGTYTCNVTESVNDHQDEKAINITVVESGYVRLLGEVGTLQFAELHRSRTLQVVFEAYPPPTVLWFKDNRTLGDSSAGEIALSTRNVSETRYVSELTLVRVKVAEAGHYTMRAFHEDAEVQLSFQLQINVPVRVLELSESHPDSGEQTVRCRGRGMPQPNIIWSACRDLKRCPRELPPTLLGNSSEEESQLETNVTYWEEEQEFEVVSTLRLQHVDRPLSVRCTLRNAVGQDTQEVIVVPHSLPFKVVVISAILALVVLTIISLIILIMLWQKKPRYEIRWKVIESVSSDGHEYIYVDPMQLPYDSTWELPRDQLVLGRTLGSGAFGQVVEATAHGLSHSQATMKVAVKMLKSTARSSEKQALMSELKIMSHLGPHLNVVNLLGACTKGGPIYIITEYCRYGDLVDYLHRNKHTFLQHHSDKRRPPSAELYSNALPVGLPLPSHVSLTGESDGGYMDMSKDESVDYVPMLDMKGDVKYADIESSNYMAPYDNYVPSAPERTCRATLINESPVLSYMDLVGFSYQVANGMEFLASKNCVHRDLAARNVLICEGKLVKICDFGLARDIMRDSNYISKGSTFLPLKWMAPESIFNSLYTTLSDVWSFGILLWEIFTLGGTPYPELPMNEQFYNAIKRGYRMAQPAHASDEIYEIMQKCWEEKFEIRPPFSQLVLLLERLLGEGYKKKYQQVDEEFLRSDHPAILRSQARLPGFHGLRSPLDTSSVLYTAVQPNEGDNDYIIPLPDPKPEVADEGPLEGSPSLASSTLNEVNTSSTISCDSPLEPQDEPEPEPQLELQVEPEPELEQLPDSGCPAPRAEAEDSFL
pIC50: −log10 of the molar value.

Answered cases to consult:
[[record]]
input_smiles = "Cc1cc(F)c(C(=O)Nc2ncn(C)n2)cc1NC(=O)c1cnc(N)s1"
result_value = "< 6.00"

[[record]]
input_smiles = "Cc1ncc(C(=O)Nc2cc(C(=O)Nc3cnc(N4CCC[C@@H]4C)cn3)c(F)cc2C)s1"
result_value = "< 6.00"

[[record]]
input_smiles = "Cc1ncc(C(=O)Nc2cc(C(=O)Nc3ccnc(C(F)(F)F)c3)c(F)cc2C)s1"
result_value = "6.00 to 7.00"

[[record]]
input_smiles = "Cc1cc(F)c(C(=O)Nc2ccc3c(c2)C(C)(C)C(=O)N3)cc1NC(=O)c1cnc(N)s1"
result_value = "> 7.00"

[[record]]
input_smiles = "Cc1ncc(C(=O)Nc2cc(C(=O)Nc3cnc(C4CC4)cn3)c(F)cc2C)s1"
result_value = "< 6.00"


Return pIC50 measured with PDGFRβ (Homo sapiens (Human), UniProt P09619) given this compound: `Nc1ncc(C(=O)Nc2cc(C(=O)Nc3ccc(OC(F)(F)F)cn3)c(F)cc2F)s1` 6.00 to 7.00

Param item: `COCC1(c2ccc(NC(=O)c3cc(NC(=O)c4cnc(N)s4)c(C)cc3F)nc2)CC1` 6.00 to 7.00

Param item: `COc1ccc(NC(=O)c2cc(NC(=O)c3cnc(N)s3)c(F)cc2F)nc1` < 6.00

----------
target: PDGFRα (Homo sapiens (Human), UniProt P16234); experiment: Inhibition of PDGFRα kinase activity (HTRF KinEASE-TK); conditions: biochemical, HTRF KinEASE-TK
Below is a list of entries, each paired with its recorded IC50 value.

[[record]]
molecule = "Cc1cc(F)c(C(=O)Nc2ccc3c(c2)NC(=O)C3(C)C)cc1NC(=O)c1cnc(N)s1 [Example 183]"
metric = "IC50"
result_value = "< 100 nM"

[[record]]
molecule = "COC1(c2ccc(NC(=O)c3cc(NC(=O)c4cnc(N)s4)c(C)cc3F)nc2)CC1 [Example 260]"
metric = "IC50"
result_value = "> 1000 nM"

[[record]]
molecule = "Cc1ncc(C(=O)Nc2cc(C(=O)Nc3ccnc(CC4CC4)n3)c(F)cc2C)s1 [Example 100]"
metric = "IC50"
result_value = "> 1000 nM"

[[record]]
molecule = "Cc1ncc(C(=O)Nc2cc(C(=O)N[C@@H]3C[C@@H]3c3ccccc3Cl)c(F)cc2C)s1 [Example 101]"
metric = "IC50"
result_value = "< 100 nM"

[[record]]
molecule = "COC1CN(c2cnc(NC(=O)c3cc(NC(=O)c4cnc(C)s4)c(C)cc3F)cn2)C1 [Example 73]"
metric = "IC50"
result_value = "> 1000 nM"


Return IC50 measured with PDGFRα (Homo sapiens (Human), UniProt P16234) given this molecule: Cc1cnc(NC(=O)c2cc(NC(=O)c3cnc(N)s3)c(C)cc2F)s1 [Example 160] > 1000 nM

Param item: Cc1cc(F)c(C(=O)Nc2nnc(C3CC3)[nH]2)cc1NC(=O)c1cnc(N)s1 [Example 176] > 1000 nM

Param item: COc1ccc(NC(=O)c2cc(NC(=O)c3cnc(N)s3)c(C)cc2F)cc1 [Example 230] 100 to 1000 nM

----------
molecular target: PDGFRα (Homo sapiens (Human), UniProt P16234); assay: Inhibition of PDGFRα kinase activity (HTRF KinEASE-TK); conditions: biochemical, HTRF KinEASE-TK
pIC50: −log10 of the molar value.
Metric: pIC50

Answered cases to consult:
[[record]]
molecule = "Cc1cc(F)c(C(=O)Nc2ccn(C3CCOCC3)n2)cc1NC(=O)c1cnc(N)s1 [Example 150]"
metric = "pIC50"
result_value = "< 6.00"

[[record]]
molecule = "Nc1ncc(C(=O)Nc2cc(C(=O)Nc3ccc(OCC(F)(F)F)cn3)c(F)cc2F)s1 [Example 220]"
metric = "pIC50"
result_value = "< 6.00"

[[record]]
molecule = "Cc1cc(F)c(C(=O)Nc2ccc(C3(C#N)CC3)cn2)cc1NC(=O)c1cnc(N)s1 [Example 118]"
metric = "pIC50"
result_value = "< 6.00"


# pIC50 lookup, item Nc1ncc(C(=O)Nc2cc(C(=O)Nc3cnc(C4CC4)nc3)c(F)cc2Cl)s1 [Example 204] 6.00 to 7.00

----------
target: PDGFRα (Homo sapiens (Human), UniProt P16234); experiment: Inhibition of PDGFRα kinase activity (HTRF KinEASE-TK); settings: biochemical
Below is a list of entries, each paired with its recorded IC50 value.

[[record]]
compound = "Cc1ncc(C(=O)Nc2cc(C(=O)Nc3ccc(CC4CC4)cn3)c(F)cc2C)s1 [Example 5]"
metric = "IC50"
result_value = "> 1000 nM"

[[record]]
compound = "Cc1ncc(C(=O)Nc2cc(C(=O)Nc3ccc(OC4CC4)cn3)c(F)cc2C)s1 [Example 2]"
metric = "IC50"
result_value = "> 1000 nM"

[[record]]
compound = "Cc1cc(F)c(C(=O)Nc2ccc(OC(F)F)cn2)cc1NC(=O)c1cnc(N)s1 [Example 9]"
metric = "IC50"
result_value = "> 1000 nM"

[[record]]
compound = "Cc1ncc(C(=O)Nc2cc(C(=O)Nc3ccc(C4CC4)cn3)c(F)cc2C)s1 [Example 3]"
metric = "IC50"
result_value = "> 1000 nM"

[[record]]
compound = "Cc1cc(F)c(C(=O)Nc2ccc(CC(F)(F)F)cn2)cc1NC(=O)c1cnc(N)s1 [Example 11]"
metric = "IC50"
result_value = "100 to 1000 nM"


# IC50 lookup, item Cc1cc(F)c(C(=O)Nc2ccc(OC(F)(F)F)cn2)cc1NC(=O)c1cnc(N)s1 [Example 8] 100 to 1000 nM

Param item: Cc1ncc(C(=O)Nc2cc(C(=O)Nc3ccc(CC(F)(F)F)cn3)c(F)cc2C)s1 [Example 1] > 1000 nM

Param item: Cc1ncc(C(=O)Nc2cc(C(=O)Nc3cnc(OCC(C)(F)F)cn3)c(F)cc2C)s1 [Example 4] > 1000 nM

----------
biological target: c-Kit (Homo sapiens (Human)); assay: Inhibition of c-Kit kinase activity (HTRF KinEASE-TK); format: biochemical; settings: biochemical, HTRF KinEASE-TK
Sequence (P10721 26-976): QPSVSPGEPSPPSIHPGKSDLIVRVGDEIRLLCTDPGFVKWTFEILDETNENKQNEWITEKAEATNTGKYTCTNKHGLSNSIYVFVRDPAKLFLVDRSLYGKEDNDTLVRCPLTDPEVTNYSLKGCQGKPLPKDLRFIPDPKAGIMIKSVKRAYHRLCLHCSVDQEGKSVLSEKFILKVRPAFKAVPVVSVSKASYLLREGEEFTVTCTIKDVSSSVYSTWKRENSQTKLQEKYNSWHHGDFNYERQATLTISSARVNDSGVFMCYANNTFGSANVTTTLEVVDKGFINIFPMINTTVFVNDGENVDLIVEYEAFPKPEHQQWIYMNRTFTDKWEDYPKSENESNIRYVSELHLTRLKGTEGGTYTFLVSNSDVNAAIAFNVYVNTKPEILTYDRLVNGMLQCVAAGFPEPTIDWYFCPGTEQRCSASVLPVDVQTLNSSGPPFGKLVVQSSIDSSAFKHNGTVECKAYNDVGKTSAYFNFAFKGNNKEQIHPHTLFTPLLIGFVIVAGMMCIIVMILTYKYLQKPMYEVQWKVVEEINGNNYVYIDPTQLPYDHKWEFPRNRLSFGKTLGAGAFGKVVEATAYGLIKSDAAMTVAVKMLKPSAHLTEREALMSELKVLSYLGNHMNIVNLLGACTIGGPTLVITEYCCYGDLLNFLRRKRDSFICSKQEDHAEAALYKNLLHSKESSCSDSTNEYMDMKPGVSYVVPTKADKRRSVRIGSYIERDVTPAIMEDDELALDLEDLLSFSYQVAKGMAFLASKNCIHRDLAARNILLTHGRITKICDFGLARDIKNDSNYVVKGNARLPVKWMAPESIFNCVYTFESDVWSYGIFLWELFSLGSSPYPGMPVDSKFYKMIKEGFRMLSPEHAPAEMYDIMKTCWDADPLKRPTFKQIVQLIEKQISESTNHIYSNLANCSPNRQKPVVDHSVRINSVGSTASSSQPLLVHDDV
Metric: IC50

[[record]]
compound = "Cc1cc(F)c(C(=O)N[C@H]2C[C@@H](F)C2)cc1NC(=O)c1cnc(N)s1 [Example 124]"
result_value = "< 100 nM"

[[record]]
compound = "Cc1cc(F)c(C(=O)Nc2ccn(C(C)C)n2)cc1NC(=O)c1cnc(N)s1 [Example 158]"
result_value = "< 100 nM"


# IC50 lookup, item Cc1cnc(NC(=O)c2cc(NC(=O)c3cnc(N)s3)c(C)cc2F)s1 [Example 160] < 100 nM

Param item: Cc1cc(F)c(C(=O)N[C@H]2CCOC2)cc1NC(=O)c1cnc(NC(=O)N2CCOCC2)s1 [Example 105] < 100 nM

Param item: COC[C@H]1CCCN1c1cnc(NC(=O)c2cc(NC(=O)c3cnc(C)s3)c(C)cc2F)cn1 [Example 90] < 100 nM

Param item: Cc1cc(F)c(C(=O)Nc2ccc(C3(C#N)CC3)cn2)cc1NC(=O)c1cnc(N)s1 [Example 118] < 100 nM

Param item: Cc1ncc(C(=O)Nc2cc(C(=O)Nc3cnc(C4CC4)cn3)c(F)cc2C)s1 [Example 43] < 100 nM

Param item: Cc1cc(F)c(C(=O)Nc2cc3n(n2)CCC3)cc1NC(=O)c1cnc(N)s1 [Example 156] < 100 nM

Param item: Cc1ncc(C(=O)Nc2cc(C(=O)Nc3cncc(CC(F)(F)F)c3)c(F)cc2C)s1 [Example 81] < 100 nM

Param item: Cc1cc(F)c(C(=O)NCCCN2CCOCC2)cc1NC(=O)c1cnc(N)s1 [Example 164] < 100 nM

Param item: Cc1ncc(C(=O)Nc2cc(C(=O)Nc3cnc(N4CCC[C@@H]4C(F)(F)F)cn3)c(F)cc2C)s1 [Example 96] < 100 nM

Param item: COCc1ccc(NC(=O)c2cc(NC(=O)c3cnc(C)s3)c(Cl)cc2F)nc1 [Example 47] 100 to 1000 nM

Param item: Cc1cc(F)c(C(=O)Nc2ccc(OC3CC3)cn2)cc1NC(=O)c1cnc(NC(=O)C(C)(C)O)s1 [Example 109] 100 to 1000 nM

Param item: Cc1ncc(C(=O)Nc2cc(C(=O)Nc3cnc(C(F)F)cn3)c(F)cc2C)s1 [Example 56] 100 to 1000 nM

Param item: CCn1ccc(NC(=O)c2cc(NC(=O)c3cnc(N)s3)c(C)cc2F)n1 [Example 179] < 100 nM

Param item: Nc1ncc(C(=O)Nc2cc(C(=O)Nc3ccc(C(F)F)cn3)c(F)cc2Cl)s1 [Example 206] < 100 nM

Param item: Cc1ncc(C(=O)Nc2cc(C(=O)Nc3ccc(CC(F)(F)F)cn3)c(Cl)cc2C)s1 [Example 99] 100 to 1000 nM
